Test system: L. donovani HU3 strain in mouse peritoneal macrophages
Procedure summary: Assay for inhibition of parasitemia of Leishmania donovani in mouse macrophages (SYBR Green nuclei count, high-content imaging)
Assay type: cell-based
Run parameters: Leishmania donovani, Peritoneal macrophage, L. donovani in mouse peritoneal macrophages; read-out: L. donovani in Mouse Macrophages EC50
Property measured: pEC50
Here pEC50 is given on a logarithmic scale as minus log10 of the concentration in mol/L.

compound_structure_string=O=C(Nc1ccc(F)c(-n2cc3cc(N4CCCC4)cnc3n2)c1)c1ccco1 data_value=7.92
compound_structure_string=O=C(Nc1ccc(F)c(-n2cc3cc(N4CC(F)(F)C4)cnc3n2)c1)N1CC[C@@H](F)C1 data_value=8.22
compound_structure_string=Cc1nc(C(=O)Nc2ccc(F)c(-n3cc4cc(C(C)C)cnc4n3)c2)co1 data_value=6.12

If you can, please state the reported pEC50 value of O=C(Nc1ccc(F)c(-n2cc3cc(N4CCCC4)cnc3n2)c1)N1CC(F)(F)C1 .
8.14

Values from patent US11384078B2
